System: CD2F1 mice, L1210 leukemia ip, survival T/C
Test: NCI In Vivo Anticancer Drug Screen. Data for tumor model L1210 Leukemia (intraperitoneal) in CD2F1 (CDF1) mice
Conditions: endpoint: mean survival time; dose: 12.5 mg/kg/injection; schedule: Q01DX009 (ip); vehicle: Klucel (hydroxypropylcellulose) (HPC); higher = longer survival
Toxic doses and inconclusive results are not listed.
Listed here are compounds together with their documented T/C.
READOUT_NAME: T/C

INSERT INTO measurements (compound, observed_value) VALUES
  ('CNNC1CCC2C3CCc4cc(O)ccc4C3CCC12C (centres undefined)', '91 % of control'),
  ('NNC(=O)CNc1cccc(Br)c1', '98 % of control'),
  ('N#CC(C#N)=C/C=C/c1cccc([N+](=O)[O-])c1', '104 % of control'),
  ('O=[As](O)(O)Cc1ccccc1', '89 % of control');
